Below, each entry is listed alongside its reported inhibition at 10 µM.
Study System: CDK8 (Homo sapiens)
Sequence (P49336 whole entry): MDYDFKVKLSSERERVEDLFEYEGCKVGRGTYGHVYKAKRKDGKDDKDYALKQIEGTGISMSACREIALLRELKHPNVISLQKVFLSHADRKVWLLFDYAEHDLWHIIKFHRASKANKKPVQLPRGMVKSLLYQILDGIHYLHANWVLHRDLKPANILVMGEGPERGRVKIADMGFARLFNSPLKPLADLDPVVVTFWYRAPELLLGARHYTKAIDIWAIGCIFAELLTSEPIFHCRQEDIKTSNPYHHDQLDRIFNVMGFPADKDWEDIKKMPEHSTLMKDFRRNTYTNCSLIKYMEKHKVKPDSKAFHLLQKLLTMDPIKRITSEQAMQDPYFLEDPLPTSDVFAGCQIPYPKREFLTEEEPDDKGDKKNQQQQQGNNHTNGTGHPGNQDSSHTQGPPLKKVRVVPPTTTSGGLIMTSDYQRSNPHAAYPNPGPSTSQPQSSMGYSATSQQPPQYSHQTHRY
Sequence (P24863 whole entry partner): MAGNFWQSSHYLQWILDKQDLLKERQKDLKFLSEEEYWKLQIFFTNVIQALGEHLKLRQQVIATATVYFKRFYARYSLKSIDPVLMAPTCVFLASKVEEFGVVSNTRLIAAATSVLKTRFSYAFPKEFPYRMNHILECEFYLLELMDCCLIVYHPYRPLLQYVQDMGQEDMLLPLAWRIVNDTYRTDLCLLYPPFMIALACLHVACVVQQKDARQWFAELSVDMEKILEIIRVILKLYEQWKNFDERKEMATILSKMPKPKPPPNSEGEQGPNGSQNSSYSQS
Assay Protocol: LanthaScreen kinase activity assay (Thermo Fisher SelectScreen kinase profiling service)
Format: biochemical
Measurement Parameters: CDK8 inhibition, compounds tested at 10 μM; read-out: Inhibitory activity (10 μM)
Value expressed in %; do not type the unit.

Compound | Value Measured
CCn1cc(-c2ccncc2)cc1C(=O)N1CCN(c2ccc(Cl)cc2)CC1 [P076‐1220] | 71

Suppose we examine the compound COc1ccc2ncc(C#N)c(N3CCC(C(=O)Nc4ccc(F)c(C)c4)CC3)c2c1 [L483‐0192] ; what inhibition at 10 µM value has been reported? 71

Entry to check: CC1CCN(C(=O)c2ccc3ncnc(N4CCCCC4)c3c2)CC1 [M628‐0340] 77

Entry to check: CCCn1cc(-c2ccncc2)cc1C(=O)N1CCC(C)CC1 [P076‐1448] 73

----------
Study System: UniProtKB P49336
Measured Metric: pIC50
Notebook: values listed as pIC50 are -log10 of the concentration (mol/L).

Suppose we examine the molecule `CCn1cc(-c2ccncc2)cc1C(=O)N1CCN(c2ccc(Cl)cc2)CC1` ; what pIC50 value has been reported? 5.35
